- STUDY SYSTEM: Glutamate carboxypeptidase 2 (Homo sapiens, UniProt Q04609)
- Sequence (Q04609 whole entry): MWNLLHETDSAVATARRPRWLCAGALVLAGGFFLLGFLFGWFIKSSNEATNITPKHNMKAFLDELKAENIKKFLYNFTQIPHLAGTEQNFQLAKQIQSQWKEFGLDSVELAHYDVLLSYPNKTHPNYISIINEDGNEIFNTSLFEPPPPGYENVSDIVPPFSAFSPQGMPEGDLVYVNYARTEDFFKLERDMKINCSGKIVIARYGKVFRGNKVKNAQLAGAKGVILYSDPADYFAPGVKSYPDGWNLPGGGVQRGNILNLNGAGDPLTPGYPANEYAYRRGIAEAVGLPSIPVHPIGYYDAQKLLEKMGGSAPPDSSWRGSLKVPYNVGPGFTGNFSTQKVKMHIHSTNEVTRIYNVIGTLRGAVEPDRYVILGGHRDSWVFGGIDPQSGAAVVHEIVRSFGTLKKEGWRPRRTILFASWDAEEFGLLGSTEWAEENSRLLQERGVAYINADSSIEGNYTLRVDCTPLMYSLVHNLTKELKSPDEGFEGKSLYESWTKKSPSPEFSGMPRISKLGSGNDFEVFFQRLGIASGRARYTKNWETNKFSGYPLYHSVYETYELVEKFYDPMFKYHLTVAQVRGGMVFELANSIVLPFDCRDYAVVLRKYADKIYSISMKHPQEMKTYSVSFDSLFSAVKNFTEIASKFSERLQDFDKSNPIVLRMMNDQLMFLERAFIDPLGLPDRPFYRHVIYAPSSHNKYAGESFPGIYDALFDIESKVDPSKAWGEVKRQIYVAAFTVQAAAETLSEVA
- ASSAY: Inhibition of PSMA in human LNCaP cell extracts using NAAG as substrate by amplex red reagent based assay
OBSERVATION TYPE: IC50 (nM)

See these solved cases before continuing.
- MOLECULE SMILES: "COc1ccc(CN(CCCC[C@H](NC(=O)N[C@@H](CCC(=O)O)C(=O)O)C(=O)O)C(=O)CCCCCNC(=O)CCC(=O)N[C@@H](Cc2ccccc2)C(=O)N[C@@H](Cc2ccccc2)C(=O)NCCCN=[N+]=[N-])c(OC)c1"
  IC50, nM: 23
- MOLECULE SMILES: "[N-]=[N+]=NCCCNC(=O)[C@H](Cc1ccc(O)c([N+](=O)[O-])c1)NC(=O)[C@H](Cc1ccccc1)NC(=O)CCC(=O)NCCCCCC(=O)N(CCCC[C@H](NC(=O)N[C@@H](CCC(=O)O)C(=O)O)C(=O)O)Cc1ccc(C(=O)O)cc1"
  IC50, nM: 2.1

A: CCOc1ccc(CN(CCCC[C@H](NC(=O)N[C@@H](CCC(=O)O)C(=O)O)C(=O)O)C(=O)CCCCCNC(=O)CCC(=O)N[C@@H](Cc2ccccc2)C(=O)N[C@@H](Cc2ccccc2)C(=O)NCCCN=[N+]=[N-])cc1
B: [N-]=[N+]=NCCCNC(=O)[C@H](Cc1ccccc1)NC(=O)[C@H](Cc1ccccc1)NC(=O)CCC(=O)NCCCCCC(=O)N(CCCC[C@H](NC(=O)N[C@@H](CCC(=O)O)C(=O)O)C(=O)O)Cc1ccc(O)cc1
Between the two listed entries A and B , which has its IC50 at the higher number? To answer, give the label that identifies your chosen option. A
(A: 51 nM, B: 24 nM)

These measurements were taken from ChEMBL document CHEMBL5113431.
